Target protein (sequence): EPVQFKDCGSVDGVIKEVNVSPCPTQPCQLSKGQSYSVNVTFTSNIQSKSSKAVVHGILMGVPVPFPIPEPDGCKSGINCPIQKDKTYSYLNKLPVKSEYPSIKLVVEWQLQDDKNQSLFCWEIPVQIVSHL
endpoint: Kd (nM)
Numbers only here, please. The scale is nM.

Prompt: Query: Kd; subject: CC(C)CCC[C@@H](C)[C@H]1CC[C@H]2[C@@H]3CC=C4C[C@@H](O)CC[C@]4(C)[C@H]3CC[C@]12C [cholesterol]
Response: 1600

----------
# targetSystem: Pry1 (Saccharomyces cerevisiae, UniProt P47032)
# Construct: made in house; host or cells: E. coli BL21
# Sequence (P47032 20-299): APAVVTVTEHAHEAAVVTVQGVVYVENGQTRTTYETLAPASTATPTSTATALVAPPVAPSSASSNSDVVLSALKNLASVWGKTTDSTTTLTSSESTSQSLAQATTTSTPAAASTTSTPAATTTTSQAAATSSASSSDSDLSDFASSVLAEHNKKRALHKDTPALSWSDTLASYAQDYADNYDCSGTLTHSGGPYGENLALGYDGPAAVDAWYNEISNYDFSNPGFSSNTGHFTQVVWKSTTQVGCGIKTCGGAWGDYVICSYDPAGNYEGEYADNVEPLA
# procedureSummary: In vitro radioligand binding assay with [3H]-cholesterol
# conditionSummary: Pry1, pH 7.5, 100 pmol protein
endpoint: pKd
Please express pKd as -log10 of the molar concentration.

Prompt: Query: pKd; subject: CC(C)CCC[C@@H](C)[C@H]1CC[C@H]2[C@@H]3CC=C4C[C@@H](O)CC[C@]4(C)[C@H]3CC[C@]12C
Response: 5.62

These data points were gathered from paper PMC12493155.
